// data source = patent US6498176B1

Test system: human umbilical vein endothelial cells (HUVECs)
Experiment: HUVEC BrdU incorporation, bFGF stimulation
Format: cell-based
Settings: 0.3 ng/ml bFGF, 72 hrs; read-out: Inhibition of BrdU incorporation in HUVEC cells, BFGF Stimulation (IC50)
Property: IC50

Specify reported IC50 for the compound shown: O=C1Nc2ccc3ncccc3c2/C1=C/Nc1ccc(CCO)cc1 [Example 32]
1.1 to 5 µM

* * *

Molecular target: c-fms intracellular domain (Homo sapiens, UniProt P07333)
Construct: The c-fms intracellular domain was expressed from a baculovirus expression system, as an amino-terminal GST fusion protein; GST (N)
Sequence (P07333 539-972 limits assumed): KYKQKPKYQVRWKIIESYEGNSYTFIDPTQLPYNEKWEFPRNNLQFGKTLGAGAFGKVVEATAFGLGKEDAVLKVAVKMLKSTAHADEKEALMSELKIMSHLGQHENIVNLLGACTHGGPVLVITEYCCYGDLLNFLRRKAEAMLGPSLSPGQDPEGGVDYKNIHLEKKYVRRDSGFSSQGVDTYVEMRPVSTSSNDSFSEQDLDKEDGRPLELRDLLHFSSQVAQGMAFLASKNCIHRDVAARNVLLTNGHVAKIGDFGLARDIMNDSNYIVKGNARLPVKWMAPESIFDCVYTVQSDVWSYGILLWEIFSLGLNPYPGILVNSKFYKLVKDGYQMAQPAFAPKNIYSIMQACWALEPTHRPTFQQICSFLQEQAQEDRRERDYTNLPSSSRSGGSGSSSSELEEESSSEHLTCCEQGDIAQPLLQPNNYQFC
Assay: c-fms protein kinase assay
Details: 1.7 μM ATP, 90 min at room temperature; read-out: Kinase inhibition c-fms (IC50)
Property: IC50

Please indicate recorded IC50 of O=C1Nc2ccc3ncccc3c2/C1=C/Nc1ccc(CCO)cc1 [Example 32] measured with c-fms intracellular domain (Homo sapiens, UniProt P07333).
> 100 nM
